Answer each item with its documented cell number.
Tested on: TDF
Test Method Notes: cell number relative to DMSO (% of DMSO); higher = more cells (less growth inhibition / toxicity);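 further: TDF denotes transformed human dermal fibroblasts of mesenchymal origin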
Run Conditions: concentration: 10 µM; 24 h
One number for each entry.

The examples below pair each entry with its known result.
> print(dat)
                                   compound  quantity.measured  recorded.measurement
1  N#Cc1cnc2cnc(NCc3cccnc3)cc2c1Nc1ccc(F)c(Cl)c1        cell number                  74.3
2  CCOC(=O)C1=C(C)NC(=S)NC1c1cccc(O)c1 (centres undefined)        cell number                   112
3  CC1CCC2(C(=O)O)CCC3(C)C(=CCC4C5(C)CC(O)C(O)C(C)(CO)C5C(O)CC43C)C2C1C (centres undefined)        cell number                   102

Now for a further compound.
The value of cell number measured for the compound CCN(Cc1ccccc1)C(=O)Cn1c(=O)n(C)c2cnc(-c3ccccc3)nc21 turned out to be 17.6

====

Tested on: TDF
Test Method Notes: cell number relative to DMSO (% of DMSO); higher = more cells (less growth inhibition / toxicity)
Run Conditions: concentration: 10 µM; 24 h
Quantity Measured: cell number
One number for each entry.

The examples below pair each entry with its known result.
> print(dat)
                                   compound  test.system  recorded.measurement
1     O=C1Nc2ccccc2C1=Cc1c(Cl)[nH]c2ccccc12          TDF                  9.63
2  CN(C)CCC=C1c2ccccc2CCc2ccccc21.Cl [Amitriptyline.HCl]          TDF                  89.4
3  CCCCCCCCCCCCCC=CC(O)C(CO)NC(=O)CCCCCCCCCCCCCCC (stereo not drawn) [C16 Ceramide]          TDF                  95.3
4  Cc1cn(C2CC(N=[N+]=[N-])C(CO)O2)c(=O)[nH]c1=O (stereo not drawn)          TDF                   101
5  Br.COc1ccccc1N1CCN(CCCCN2C(=O)c3ccccc3C2=O)CC1 [NAN-190 hydrobromide]          TDF                   102

I would be grateful if you could provide cell number for each of the following entries.
1. CC(=O)OC(C)C[N+](C)(C)C.[Cl-] (stereo not drawn) [Acetyl-beta-methylcholine chloride]
2. CC12CCC(=O)C=C1CCC1C2C(O)CC2(C)C(C(=O)CO)CCC12 (stereo not drawn)
3. C[C@@H](c1nc(-c2ccc(C#N)cc2)cs1)[C@](O)(Cn1cncn1)c1ccc(F)cc1F

1: 94.7; 2: 103; 3: 95

====

Tested on: HCC1569
Test Method Notes: cell number relative to DMSO (% of DMSO); higher = more cells (less growth inhibition / toxicity)
Run Conditions: concentration: 10 µM; 24 h
1.0 means recorded cell number is 100 or above; 0.0 means it is below 100.

Use the examples below as a reference point.
> print(dat)
                              molecule  label.value
1                      CCCCCCCCCC(=O)O          1.0
2  CC=Cc1ccc(OC)cc1 [Anethole, trans-]          0.0

Test whether the molecule COC(=O)C1=C(C)NC(C)=C(C(=O)OCCCN2CCC(c3ccccc3)(c3ccccc3)CC2)C1c1cccc([N+](=O)[O-])c1 (centres undefined) records cell number of 100 or higher. 0.0
